Recorded pIC50 for the following compounds
Target: human PDE4B1 (Homo sapiens, UniProt Q07343)
Construct: host or cells: Sf9 cells
Sequence (Q07343 whole entry): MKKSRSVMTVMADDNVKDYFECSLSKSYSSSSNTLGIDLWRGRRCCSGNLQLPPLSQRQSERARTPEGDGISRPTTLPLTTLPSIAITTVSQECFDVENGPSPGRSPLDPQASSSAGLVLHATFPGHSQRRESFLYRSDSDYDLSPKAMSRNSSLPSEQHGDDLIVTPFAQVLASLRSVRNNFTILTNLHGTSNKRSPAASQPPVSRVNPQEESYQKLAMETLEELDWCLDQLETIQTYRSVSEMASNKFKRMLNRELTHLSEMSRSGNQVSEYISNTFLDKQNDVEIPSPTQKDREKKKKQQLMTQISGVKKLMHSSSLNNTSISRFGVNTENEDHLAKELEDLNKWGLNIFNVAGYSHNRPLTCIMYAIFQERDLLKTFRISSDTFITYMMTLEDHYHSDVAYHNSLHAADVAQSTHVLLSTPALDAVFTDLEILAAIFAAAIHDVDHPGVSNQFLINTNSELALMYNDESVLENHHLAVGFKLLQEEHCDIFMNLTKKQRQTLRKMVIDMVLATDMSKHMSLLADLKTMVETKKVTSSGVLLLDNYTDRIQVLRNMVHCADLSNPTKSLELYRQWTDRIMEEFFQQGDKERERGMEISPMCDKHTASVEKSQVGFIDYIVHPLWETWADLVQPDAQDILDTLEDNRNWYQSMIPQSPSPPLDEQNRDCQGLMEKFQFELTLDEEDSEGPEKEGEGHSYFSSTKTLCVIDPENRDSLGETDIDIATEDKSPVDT
Assay: cAMP HTRF assay to determine the activity of hPDE4B1
Format: biochemical
Settings: dose response measurements with eight concentrations; reported as ranges; read-out: IC50
pIC50: −log10 of the molar value.

Request: Quick one: pIC50 for O=C(O)c1ccc2c(c1)CCN2c1nc(-c2ccc(Cl)s2)nc2c1CCC2 ?
Result: 6.00 to 7.00

Request: Proceed to CN(C(=O)COc1ccc2c(c1)N(c1nc(-c3ccc(Cl)s3)nc3c1CCC3)CC2)C1CC1
Result: 6.00 to 7.00

Request: Cool, now COc1ccc(-c2nc3c(c(N4CCc5ccc(OCC(=O)N(C)C)cc54)n2)C[S+]([O-])C3)cn1 (stereo not shown)
Result: > 7.00

Request: Repeat for the following compound: CN(C)C(=O)COc1ccc2c(c1)N(c1nc(-c3ccc(C(N)=O)s3)nc3c1C[S+]([O-])C3)CC2 (stereo not shown)
Result: > 7.00

The measurements presented in this section are drawn from patent US9527832B2.
